The origin of these recorded values is paper PMC9170038.

Molecular target: MS2 coat protein, dlFG mutant (Escherichia phage MS2, UniProt P03612, del68-81insG)
Assay: 4 mM Mg2+; no ligand; RNA-MaP array; 100 mM Tris-HCl pH 7.5, 80 mM KCl, 4 mM MgCl2, 0.1 mg/mL BSA, 1 mM DTT, 0.01 mg/mL yeast tRNA, 0.01% Tween-20; protein 1.5 nM to 3 uM; 37 C (Table S3)
Conditions: chain copies: 2; label: tethered by stalled RNA polymerase
pKd: −log10 of the molar value.

[
  {
    "BINDER": "Eterna 8125 (Exclusion 4) (ssRNA) RNA: GUGAAGUGAGGAUAUACGAGAGAGGCUGAACCGGACGAGAAGUAGAAGGCACAUGAGGAUCACCCAUGUACGGG",
    "pKd": 6.68
  },
  {
    "BINDER": "Eterna 1174 (Exclusion - Theophylline B) (ssRNA) RNA: GCUGUCCAGUUCGAUACCAGAGUUAUCGCACUGUAGUGAUAAAGUGAUGUUUUAUCAGUCCUCCCUUGGCAGCGAUGCCCGGCUG",
    "pKd": "< 5.52"
  },
  {
    "BINDER": "Eterna 1188 (Exclusion - Theophylline B) (ssRNA) RNA: AGCUGCCGAAUAGAUACCAGUGUCUUUAGUGAUGUUUCAGAGCUGGCACGAUCAGAAGGUCACCCUUGGCAGCUAGUGCCAGCGU",
    "pKd": "< 5.52"
  },
  {
    "BINDER": "Eterna 7720201 (Exclusion - Theophylline B) (ssRNA) RNA: CCUAUCUCAUACGAUACCAGUCUACGAUAUUUUAUCGUUGCCAACACCGAGUGAUGUUCGGACCCUUGGCAGCGUAUGGGAUAGG",
    "pKd": "< 5.52"
  },
  {
    "BINDER": "Eterna 7710481 (Same State - Theophylline B) (ssRNA) RNA: GGAGGUUGGUGCGAUACCAGACCAGCAGUGAUGUUGCGCCAAAGUGAGUGAUGUUCACCGGUCCCUUGGCAGCGCAUUCCUUUAG",
    "pKd": "< 5.52"
  }
]
